- test_description: PK study in rats (plasma)
- Format: in vivo
- condition_set: rat, plasma, iv, 40 mg/kg
measurement_kind: clearance (mL/min/kg)
Provide the reading as a plain figure in mL/min/kg.

# lookup: clearance of O=C(O)c1cccnc1 [Nicotinic acid]
5.07

----------
- Test system: human hepatocytes
- test_description: Human hepatocyte stability
- condition_set: 90 mins
Listed next: entries and their corresponding % Parent Remaining.
Report the figure in % without appending any unit label.

In the examples that follow, each entry is paired with its recorded % Parent Remaining.
compound	value_units	% Parent Remaining
COC(=O)[C@@H](C)NP(=O)(OC[C@H]1OC(OC(=O)c2cccnc2)[C@H](O)[C@@H]1O)Oc1ccccc1 (some centres unmarked) [Compound 101]	%	2.0
COC(=O)[C@@H](C)N[P@](=O)(OC[C@H]1OC(OC(=O)c2cccnc2)[C@H](O)[C@@H]1O)Oc1ccccc1 (single isomer, unassigned) [Compound 103]	%	5
COC(=O)[C@@H](C)N[P@@](=O)(OC[C@H]1OC(OC(=O)c2cccnc2)[C@H](O)[C@@H]1O)Oc1ccccc1 (single isomer, unassigned) [Compound 104]	%	24
C[C@]12CC[C@H]3[C@@H](CCC4=CC(=O)CC[C@@]43C)[C@@H]1CC[C@@H]2O [Testosterone, reference compound]	%	1

Entry under review: O=C(OC1O[C@H](CO)[C@@H](O)[C@H]1O)c1cccnc1 (some centres unmarked) [Compound 100] . Reported % Parent Remaining?
66.4
